Test system: K-562 leukemia
Experiment: NCI tumour cell line growth inhibition, 48 h; in the data active = GI50 below about 0.43 µM; inactive = the rest
Log the outcome using a class from active, inactive

Example cases with answers are listed next.
CCCCCCOc1ccc(/C=N/Nc2cc(C)nc3ccc(Cl)cc23)cc1 = inactive
Cn1cc(-c2cc3c(N4CCN(c5ncc([C@@](C)(N)c6ccc(F)cc6)cn5)CC4)ncnn3c2)cn1 = inactive
c1ccc(Nc2ncc(-c3ccccc3)o2)cc1 = inactive
Cc1[cH-]c(=O)n(-c2ccccc2)n1.[Au+].[Au].c1ccc([PH+](c2ccccc2)c2ccccc2)cc1.c1ccc([PH+](c2ccccc2)c2ccccc2)cc1 = inactive
COc1ccc(C(c2cc(OC)c(OC)c(OC)c2)n2cncn2)cc1O (stereo not given) = inactive

q: For c1ccc(-c2n(Cc3ccc4ccccc4n3)cc[n+]2Cc2ccc3ccccc3c2)cc1 , what call appears in the results of this test?
a: inactive

q: Now consider CN1CCN(c2ccc(Nc3ncc(Cl)c(NC[C@@H]4CCCO4)n3)cc2)CC1 and answer again.
a: inactive

q: Now consider O=C(NC1CCCCC1)NS(=O)(=O)c1ccc(N2N=C3c4ccccc4CC3C2c2ccc(Cl)cc2)cc1 (stereo not given) and answer again.
a: inactive

q: Now consider O=C1OCC2=C1C(c1cccc(Br)c1)c1cc3c(cc1N2CCO)OCCO3 (stereo not given) and answer again.
a: active

q: Now consider Cc1nnc2ccnn2c1C and answer again.
a: inactive
